biological target: PI3K (Homo sapiens, UniProt P42336); construct: PI3 Kinase α IC50; other: PI3 Kinase α; other: PI3 Kinase α isoform, fluorescence polarization; assay: Fluorescence polarization assay for PI3K; type: biochemical; conditions: PI3 Kinase α; read-out: PI3 Kinase α IC50
Sequence (P42336 whole entry, canonical isoform): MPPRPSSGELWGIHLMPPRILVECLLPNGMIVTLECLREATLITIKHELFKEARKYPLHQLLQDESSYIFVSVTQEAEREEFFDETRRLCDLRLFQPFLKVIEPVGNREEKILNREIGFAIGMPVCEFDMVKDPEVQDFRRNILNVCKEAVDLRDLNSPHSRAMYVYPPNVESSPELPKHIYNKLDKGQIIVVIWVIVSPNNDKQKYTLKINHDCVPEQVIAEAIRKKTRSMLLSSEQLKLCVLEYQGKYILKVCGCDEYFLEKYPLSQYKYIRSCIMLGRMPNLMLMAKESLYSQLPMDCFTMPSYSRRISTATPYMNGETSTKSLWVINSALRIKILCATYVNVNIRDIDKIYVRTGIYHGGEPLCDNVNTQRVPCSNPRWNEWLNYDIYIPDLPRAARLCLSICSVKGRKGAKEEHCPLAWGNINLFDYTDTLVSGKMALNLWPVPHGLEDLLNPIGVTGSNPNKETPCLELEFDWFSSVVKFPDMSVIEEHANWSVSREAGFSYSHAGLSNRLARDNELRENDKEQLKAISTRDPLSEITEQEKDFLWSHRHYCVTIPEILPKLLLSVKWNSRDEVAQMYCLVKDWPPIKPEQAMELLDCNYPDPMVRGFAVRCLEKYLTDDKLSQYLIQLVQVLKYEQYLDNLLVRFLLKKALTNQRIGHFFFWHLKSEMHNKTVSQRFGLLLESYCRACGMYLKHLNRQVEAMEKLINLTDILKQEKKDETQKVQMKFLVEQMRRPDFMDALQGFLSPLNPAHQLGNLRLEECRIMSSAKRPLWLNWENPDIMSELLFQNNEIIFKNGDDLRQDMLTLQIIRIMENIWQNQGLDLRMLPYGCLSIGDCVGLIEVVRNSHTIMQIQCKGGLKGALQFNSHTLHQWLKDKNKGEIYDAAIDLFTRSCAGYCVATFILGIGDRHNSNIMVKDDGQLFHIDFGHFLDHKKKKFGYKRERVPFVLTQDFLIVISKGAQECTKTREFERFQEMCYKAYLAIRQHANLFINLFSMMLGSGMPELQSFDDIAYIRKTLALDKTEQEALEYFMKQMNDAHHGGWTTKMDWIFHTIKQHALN
ATTRIBUTE_MEASURED: IC50 (nM)

CCn1ncc2c(N3CC4CCC(C3)O4)nc(-c3ccc(NC(=O)Nc4ccccc4)cc3)nc21 [Example 46]
68
O=C(Nc1ccc(OCCO)cc1)Nc1ccc(-c2nc(N3CC4CCC(C3)O4)c3cnn(CC(F)(F)F)c3n2)cc1 [Example 263]
147

a: CNC(=O)Nc1ccc(-c2nc(N3CC4CCC(C3)O4)c3cnn(C4CCC(=O)CC4)c3n2)cc1 [Example 106]
b: CC(C)n1ncc2c(N3CC4CCC(C3)O4)nc(-c3ccc(NC(=O)NCCO)cc3)nc21 [Example 143]
c: CC(C)(C)OC(=O)N1CCC(n2ncc3c(N4CC5CCC(C4)O5)nc(-c4ccc(NC(=O)Nc5ccccc5)cc4)nc32)CC1 [Example 23]
List the 3 entries from lowest IC50 to highest IC50 value. Use the labels to give the ranking in the order requested.
b, c, a
(b: 246 nM, c: 888 nM, a: 1300 nM)

====

molecular target: Human mTOR (FLAG-TOR) (Homo sapiens, UniProt P42345); construct: FLAG; assay: Human mTOR kinase assay with purified enzyme, DELFIA format; assay type: biochemical
pIC50: −log10 of the molar value.
ATTRIBUTE_MEASURED: pIC50

CNC(=O)Nc1ccc(-c2nc(N3CC4CCC(C3)O4)c3cnn(C4CCN(CC(F)(F)F)CC4)c3n2)cc1 [Example 26]
8.96
CNC(=O)Nc1ccc(-c2nc(N3CC4CCC(C3)O4)c3cnn([C@H]4CC[C@@H](O)CC4)c3n2)cc1 [Example 109]
9.52

P: CN1CCN(c2ccc(NC(=O)Nc3ccc(-c4nc(N5CC6CCC(C5)O6)c5cnn(C6CCC7(CC6)OCCO7)c5n4)cc3)cc2)CC1 [Example 135]
Q: O=C(Nc1ccccc1)Nc1ccc(-c2nc(N3CC4CCC(C3)O4)c3cnn(CCO)c3n2)cc1 [Example 198]
R: CCn1ncc2c(N3CC4CCC(C3)O4)nc(-c3ccc(NC(=O)N[C@H]4CC[C@@H](N)CC4)cc3)nc21 (relative stereo) [Example 229]
Kindly order the items shown according to pIC50, from the highest value down. When ranking, write the labels in the order the request describes.
P, Q, R

A: CC(C)n1ncc2c(N3CC4CCC(C3)O4)nc(-c3ccc(NC(=O)Nc4ccccc4)cc3)nc21 [Example 147]
B: CCn1ncc2c(N3CC4CCC(C3)O4)nc(-c3ccc(NC(=O)Nc4ccc(N)nc4)cc3)nc21 [Example 287]
Param pair: A , B . Output: the one whose pIC50 is numerically greater. Lab note: record the label of whichever item you select.
A
(A: 9.73, B: 9.39)

A: CCNC(=O)Nc1ccc(-c2nc(N3CC4CCC(C3)O4)c3cnn(C(C)C)c3n2)cc1 [Example 140]
B: CCn1ncc2c(N3CC4CCC(C3)O4)nc(-c3ccc(NC(=O)NCCCNC)cc3)nc21 [Example 49]
Choose between A and B : whose measured pIC50 value is numerically larger? # answer = label of selected item
A
(A: 9.85, B: 7.85)

====

target: PI3K (Homo sapiens, UniProt P48736); construct: PI3 Kinase γ IC50; other: PI3 Kinase γ; other: PI3 Kinase γ isoform, fluorescence polarization; assay: Fluorescence polarization assay for PI3K; type: biochemical; conditions: PI3 Kinase γ isoform, fluorescence polarization; read-out: PI3 Kinase γ IC50
Sequence (P48736 whole entry, canonical isoform): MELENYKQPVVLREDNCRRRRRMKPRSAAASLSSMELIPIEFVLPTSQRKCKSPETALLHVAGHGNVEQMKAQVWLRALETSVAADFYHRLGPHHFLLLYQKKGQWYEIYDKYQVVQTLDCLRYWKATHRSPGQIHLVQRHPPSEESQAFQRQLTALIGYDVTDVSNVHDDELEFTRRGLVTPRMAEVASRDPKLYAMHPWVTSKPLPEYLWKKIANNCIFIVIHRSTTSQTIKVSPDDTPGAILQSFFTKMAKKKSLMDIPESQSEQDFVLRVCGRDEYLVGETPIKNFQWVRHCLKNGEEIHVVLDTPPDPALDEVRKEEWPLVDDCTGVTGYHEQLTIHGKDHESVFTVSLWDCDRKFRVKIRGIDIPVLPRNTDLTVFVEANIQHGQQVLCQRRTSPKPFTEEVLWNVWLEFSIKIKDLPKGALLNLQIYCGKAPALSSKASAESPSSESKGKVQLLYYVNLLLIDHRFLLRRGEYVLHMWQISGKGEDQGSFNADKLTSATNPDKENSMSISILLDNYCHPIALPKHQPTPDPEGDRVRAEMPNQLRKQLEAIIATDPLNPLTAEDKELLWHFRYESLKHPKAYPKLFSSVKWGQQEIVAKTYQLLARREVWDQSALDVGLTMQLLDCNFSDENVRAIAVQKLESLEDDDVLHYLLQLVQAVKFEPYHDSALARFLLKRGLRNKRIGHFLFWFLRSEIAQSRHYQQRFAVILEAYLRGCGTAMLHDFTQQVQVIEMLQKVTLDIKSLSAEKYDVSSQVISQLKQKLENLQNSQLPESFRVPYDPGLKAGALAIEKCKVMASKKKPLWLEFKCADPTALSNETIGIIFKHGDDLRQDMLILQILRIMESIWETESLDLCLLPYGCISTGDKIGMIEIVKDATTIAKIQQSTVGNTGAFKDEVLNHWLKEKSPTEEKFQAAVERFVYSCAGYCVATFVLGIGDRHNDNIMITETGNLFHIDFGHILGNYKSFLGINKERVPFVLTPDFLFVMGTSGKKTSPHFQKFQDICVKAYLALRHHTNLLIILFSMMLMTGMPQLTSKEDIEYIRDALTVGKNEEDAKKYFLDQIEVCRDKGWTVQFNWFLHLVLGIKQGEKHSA
pIC50: −log10 of the molar value.
// reported pIC50 for each item listed

COCC(COC)n1ncc2c(N3CC4CCC(C3)O4)nc(-c3ccc(NC(=O)NC4CC4)cc3)nc21 [Example 321]
< 5.00
O=C(NCCF)Nc1ccc(-c2nc(N3CC4CCC(C3)O4)c3sccc3n2)cc1 [Example 408]
< 5.00

The recorded pIC50 with PI3K (Homo sapiens, UniProt P48736) for CCn1nc(CN2CCCC2)c2c(N3CC4CCC(C3)O4)nc(-c3ccc(NC(=O)NC)cc3)nc21 [Example 354] was < 5.00

====

target: Human mTOR (FLAG-TOR) (Homo sapiens); construct: FLAG; assay: Human mTOR kinase assay with purified enzyme, DELFIA format; type: biochemical
ATTRIBUTE_MEASURED: IC50 (pM)

O=C(Nc1ccc(-c2nc(N3CC4CCC(C3)O4)c3cnn(C4CCN(Cc5ccccc5)CC4)c3n2)cc1)OCCO
2900
COC(=O)N1CCC(n2ncc3c(N4CC5CCC(C4)O5)nc(-c4ccc(NC(=O)Nc5cccc(CO)c5)cc4)nc32)CC1
215
CCOC(=O)N1CCC(n2ncc3c(N4CC5CCC(C4)O5)nc(-c4ccc(NC(=O)NC5CCN(C)CC5)cc4)nc32)CC1
26000

1: O=C(Nc1ccccc1)Nc1ccc(-c2nc(N3CC4CCC(C3)O4)c3cnn(C4CCC5(CC4)OCCO5)c3n2)cc1
2: CCNC(=O)Nc1ccc(-c2nc(N3CC4CCC(C3)O4)c3cnn(CCO)c3n2)cc1
Lower value of IC50 belongs to which: 1 or 2 ? Use the label to indicate which entry you chose.
1
(1: 155 pM, 2: 2700 pM)

====

target: PI3K (Homo sapiens); construct: PI3 Kinase α IC50; other: PI3 Kinase α; other: PI3 Kinase α isoform, fluorescence polarization; experiment: Fluorescence polarization assay for PI3K; assay type: biochemical; conditions: PI3 Kinase α isoform, fluorescence polarization; read-out: PI3 Kinase α IC50
pIC50: −log10 of the molar value.
ATTRIBUTE_MEASURED: pIC50

A: O=C(Nc1ccc(-c2nc(N3C[C@@H]4C[C@H]3CO4)c3cnn(CC(F)(F)F)c3n2)cc1)Nc1ccc(N2CCNCC2)cc1 [Example 393]
B: Nc1ccc(-c2nc(N3CC4CCC(C3)O4)c3sccc3n2)cn1 [Example 420]
Pick one: A or B . Which has the bigger pIC50 number? // output: label of the selected item
A
(A: 6.48, B: 5.75)

====

molecular target: PI3K (Homo sapiens, UniProt P48736); construct: PI3 Kinase γ IC50; other: PI3 Kinase γ; other: PI3 Kinase γ isoform, fluorescence polarization; assay: Fluorescence polarization assay for PI3K; assay type: biochemical; conditions: PI3 Kinase γ; read-out: PI3 Kinase γ IC50
pIC50: −log10 of the molar value.
Listed compounds paired with reported pIC50

CNC(=O)Nc1ccc(-c2nc(N3CC4CCC(C3)O4)c3cnn(C4CCN(C(=O)OC)CC4)c3n2)cc1
< 5.00

According to the records, this compound `CC(C)(C)n1ncc2c(N3CC4CCC(C3)O4)nc(-c3ccc(NC(=O)NC4CC4)cc3)nc21` displays pIC50 of < 5.00

compound `CC(C)(C)OC(=O)N1CCC(n2ncc3c(N4CC5CCC(C4)O5)nc(-c4ccc(NC(=O)Nc5ccccc5)cc4)nc32)CC1` , pIC50 observed: < 5.00

====

target: PI3K (Homo sapiens, UniProt P42336); construct: PI3 Kinase α IC50; other: PI3 Kinase α; other: PI3 Kinase α isoform, fluorescence polarization; test: Fluorescence polarization assay for PI3K; format: biochemical; settings: PI3 Kinase α; read-out: PI3 Kinase α IC50
ATTRIBUTE_MEASURED: IC50 (nM)

CNC(=O)Nc1ccc(-c2nc(N3CC4CCC(C3)O4)c3cnn(CCO)c3n2)cc1
375
CNC(=O)Nc1ccc(-c2nc(N3CC4CCC(C3)O4)c3cnn(C(C)(C)C)c3n2)cc1
202

I: CCn1ncc2c(N3CC4CCC(C3)O4)nc(-c3ccc(NC(=O)NCCNC)cc3)nc21
II: CCn1ncc2c(N3CC4CCC(C3)O4)nc(-c3ccc(NC(=O)Nc4ccc(C#N)cc4)cc3)nc21
III: CCn1ncc2c(N3CC4CCC(C3)O4)nc(-c3cccc(O)c3)nc21
IV: Cn1ncc2c(N3CC4CCC(C3)O4)nc(-c3ccc(NC(=O)Nc4ccc(N5CCOCC5)cc4)cc3)nc21
Ascending by IC50, please. List each label, following the requested order.
I, IV, II, III

====

target: PI3K (Homo sapiens, UniProt P48736); construct: PI3 Kinase γ IC50; other: PI3 Kinase γ; other: PI3 Kinase γ isoform, fluorescence polarization; assay: Fluorescence polarization assay for PI3K; assay type: biochemical; settings: PI3 Kinase γ; read-out: PI3 Kinase γ IC50
pIC50: −log10 of the molar value.
Form field: pIC50 (one value per entry).

Sample records with pIC50:
CCOC(=O)Nc1ccc(-c2nc(N3CC4CCC(C3)O4)c3cnn(CCO)c3n2)cc1
< 5.00
Cn1ncc2c(N3CC4CCC(C3)O4)nc(-c3ccc(NC(=O)NC4CC4)cc3)nc21
5.05
CN1CCN(c2ccc(NC(=O)Nc3ccc(-c4nc(N5CC6CCC(C5)O6)c5cnn(C)c5n4)cc3)cn2)CC1
5.97
CCn1ncc2c(N3CC4CCC(C3)O4)nc(-c3ccc(NC(=O)NCC4CCN(C)CC4)cc3)nc21
< 5.00
Cn1ncc2c(N3CC4CCC(C3)O4)nc(-c3ccc(NC(=O)Nc4ccc(N5CCOCC5)nc4)cc3)nc21
< 5.00
N#CCCn1ncc2c(N3CC4CCC(C3)O4)nc(-c3ccc(NC(=O)NC4CC4)cc3)nc21
< 5.00
CNC(=O)Nc1ccc(-c2nc(N3CC4CCC(C3)O4)c3cnn(CCO)c3n2)cc1
< 5.00
CN1CCN(c2ccc(NC(=O)Nc3ccc(-c4nc(N5CC6CCC(C5)O6)c5cnn(C)c5n4)cc3)cc2)CC1
6.59
O=C(Nc1ccncc1)Nc1ccc(-c2nc(N3CC4CCC(C3)O4)c3cnn(CCF)c3n2)cc1
5.92
CN(C)CCn1ncc2c(N3CC4CCC(C3)O4)nc(-c3ccc(NC(=O)Nc4ccncc4)cc3)nc21
6.32

Record `CCn1ncc2c(N3CC4CCC(C3)O4)nc(-c3ccc(NC(=O)Nc4ccc(Cl)cc4)cc3)nc21` . Reported pIC50: 5.53

Lookup result for `N#CCCn1ncc2c(N3CC4CCC(C3)O4)nc(-c3ccc(NC(=O)OCCO)cc3)nc21` ; measured pIC50: < 5.00

Entry `Oc1ccc(Nc2nc(N3CC4CCC(C3)O4)c3cnn(C4CCN(Cc5ccccc5)CC4)c3n2)cc1` ; pIC50 = < 5.00

Entry under test: `CCn1ncc2c(N3CC4CCC(C3)O4)nc(-c3ccc(NC(=O)OCCO)cc3)nc21` . Its pIC50 was < 5.00

Summary for this molecule, CNC(=O)Nc1ccc(-c2nc(N3CC4CCC(C3)O4)c3cnn(C4CCC5(CC4)OCCO5)c3n2)cc1 [Example 105] : pIC50 is < 5.00

For reference, reported pIC50 for `CCn1ncc2c(N3CC4CCC(C3)O4)nc(-c3ccc(NC(=O)NCCN4CCOCC4)cc3)nc21` stands at 5.00

Lab note: `CCn1ncc2c(N3CC4CCC(C3)O4)nc(-c3ccc(NC(=O)NCCCN(C)C)cc3)nc21` gave pIC50 of < 5.00

// recorded pIC50 for `CNC(=O)Nc1ccc(-c2nc(N3CC4CCC(C3)O4)c3cnn(C(C)(C)C)c3n2)cc1` : < 5.00
